# Test system: weeds ABUTH, AMATA, AMBEL, CHEAL, ERICA
# Protocol Description: Postemergence herbicide evaluation, overall average % weed control (ABUTH, AMATA, AMBEL, CHEAL, ERICA)
# Format: in vivo
# Cond: post-emergence, 168 h, read-out: Overall Ave % Weed Control
Observable: pest or weed control at 280 g/ha (%)
Write the value in % as a bare number.

stdin: Specify pest or weed control at 280 g/ha for `O=C(COc1ccc(Cl)cc1Cl)OCCOCCOC(=O)COc1ccc(Cl)cc1Cl` and stop.
stdout: 73

stdin: For the molecule O=C(COc1ccc(Cl)cc1Cl)Nc1ccncc1 [Compound D1] , report pest or weed control at 280 g/ha.
stdout: 69

stdin: Name the recorded pest or weed control at 280 g/ha of the molecule listed here: `O=C(COc1ccc(Cl)cc1Cl)OCc1ccc(COC(=O)COc2ccc(Cl)cc2Cl)cc1`
stdout: 19

stdin: Please report the measured pest or weed control at 280 g/ha for `O=C(COc1ccc(Cl)cc1Cl)n1ncc2ccccc21`
stdout: 59

----------
# System: Ambrosia artemisiifolia (AMBEL), common ragweed
# Protocol Description: Postemergence herbicide evaluation, growth of Ambrosia artemisiifolia (AMBEL)
# Format: in vivo
# Cond: Ambrosia artemisiifolia, post-emergence, 336 h, 280 g ae/ha, 14 DAA; read-out: AVE. AMBEL, percent reduction in plant size relative to the untreated control
Values of pest or weed control at 280 g/ha strictly less than 80% map to yes, and values of at least 80% map to no.

Completed entries (count: 5):
[[record]]
compound = "O=C(COc1ccc(Cl)cc1Cl)Oc1cncnc1 [Compound E14]"
assigned_label = "no"

[[record]]
compound = "O=C(COc1ccc(Cl)cc1Cl)Nc1ccon1 [Compound D2]"
assigned_label = "no"

[[record]]
compound = "C/C(=N\\OC(=O)COc1ccc(Cl)cc1Cl)c1ccccc1Cl [Compound A24]"
assigned_label = "yes"

[[record]]
compound = "C/C(=N\\OC(=O)COc1ccc(Cl)cc1Cl)c1ccccc1 [Compound A1]"
assigned_label = "no"

[[record]]
compound = "O=C(COc1ccc(Cl)cc1Cl)Nc1cc[nH]n1 [Compound D21]"
assigned_label = "yes"


stdin: A record lists O=C(COc1ccc(Cl)cc1Cl)O/N=C/c1ccncc1 [Compound A30] . Is its pest or weed control at 280 g/ha below 80%?
stdout: no

stdin: Is the reported pest or weed control at 280 g/ha for C/C(=N\OC(=O)COc1ccc(Cl)cc1Cl)c1ccncc1 [Compound A27] strictly below 80%?
stdout: yes

stdin: Dear colleague, could you confirm whether pest or weed control at 280 g/ha of CC(C)CONC(=O)COc1ccc(Cl)cc1Cl [Compound D22] falls below 80%? Thanks.
stdout: no

stdin: Determine whether this compound shows pest or weed control at 280 g/ha lower than 80% (ties excluded): Cc1nccc(NC(=O)COc2ccc(Cl)cc2Cl)c1C [Compound D26]
stdout: yes

stdin: # check: pest or weed control at 280 g/ha < 80% for O=C(COc1ccc(Cl)cc1Cl)O/N=C1\CCCc2ccccc21 [Compound A25]
stdout: yes

stdin: Given the entry O=C(COc1ccc(Cl)cc1Cl)Oc1cccnn1 [Compound E2] , would its reported pest or weed control at 280 g/ha be below 80%?
stdout: no

stdin: is_below(pest or weed control at 280 g/ha, 80%) for O=C(COc1ccc(Cl)cc1Cl)Nc1c(Cl)c(F)nc(F)c1Cl [Compound D25] ?
stdout: yes

stdin: Problem: For the compound C[N+](C)(C)CCOC(=O)COc1ccc(Cl)cc1Cl.[Cl-] [Compound E3] , is pest or weed control at 280 g/ha under 80%?
stdout: no

stdin: A record lists C/C(=N\OC(=O)COc1ccc(Cl)cc1Cl)c1cccnc1 [Compound A26] . Is its pest or weed control at 280 g/ha below 80%?
stdout: yes

----------
# Tested on: Chenopodium album (CHEAL), common lambsquarters
# Protocol Description: Postemergence herbicide evaluation, growth of Chenopodium album (CHEAL)
# Assay type: in vivo
# Cond: Chenopodium album, post-emergence, 168 h, 280 g ae/ha, 7 DAA; read-out: Ave. CHEAL, percent reduction in plant size relative to the untreated control
Criterion: pest or weed control at 280 g/ha strictly less than 80%. Met: T. Not met: F.

Worked examples follow.
[[record]]
smiles_string = "COc1ncc(OC(=O)COc2ccc(Cl)cc2Cl)cn1"
assigned_label = "T"

[[record]]
smiles_string = "O=C(COc1ccc(Cl)cc1Cl)Nc1nccs1"
assigned_label = "F"

[[record]]
smiles_string = "C/C(=N\\OC(=O)COc1ccc(Cl)cc1Cl)c1ccncc1"
assigned_label = "T"


stdin: API: query returns whether the compound falls strictly under 80% in pest or weed control at 280 g/ha. Query: `N/C(=N\OC(=O)COc1ccc(Cl)cc1Cl)c1ccco1`
stdout: T

stdin: Lab note: pest or weed control at 280 g/ha threshold 80%. Does this compound come in strictly under it? `O=C(COc1ccc(Cl)cc1Cl)Nc1c(Cl)c(F)nc(F)c1Cl`
stdout: T

stdin: Hello, I'm reviewing records and need to know if pest or weed control at 280 g/ha of `N/C(=N\OC(=O)COc1ccc(Cl)cc1Cl)c1ccccc1` is below 80%. Could you check?
stdout: T

----------
# Tested on: weeds ABUTH, AMATA, AMBEL, CHEAL, ERICA
# Protocol Description: Postemergence herbicide evaluation, overall average % weed control (ABUTH, AMATA, AMBEL, CHEAL, ERICA)
# Type: in vivo
# Cond: post-emergence, 504 h, read-out: Overall Ave % Weed Control
Readings of pest or weed control at 560 g/ha for the listed compounds
Number first, unit second: that is the form wanted.

Answered examples (3):
[[record]]
compound = "O=C(COc1ccc(Cl)cc1Cl)n1ncc2ccccc21 [Compound D3]"
experimental_system = "weeds ABUTH, AMATA, AMBEL, CHEAL, ERICA"
observable = "pest or weed control at 560 g/ha"
result = "73%"

[[record]]
compound = "O=C(COc1ccc(Cl)cc1Cl)Nc1ccncc1 [Compound D1]"
experimental_system = "weeds ABUTH, AMATA, AMBEL, CHEAL, ERICA"
observable = "pest or weed control at 560 g/ha"
result = "93%"

[[record]]
compound = "O=C(COc1ccc(Cl)cc1Cl)OCCOCCOC(=O)COc1ccc(Cl)cc1Cl [Compound B2]"
experimental_system = "weeds ABUTH, AMATA, AMBEL, CHEAL, ERICA"
observable = "pest or weed control at 560 g/ha"
result = "94%"


Kindly review the next compound as well.
stdin: Could you please provide reported pest or weed control at 560 g/ha for O=C(COc1ccc(Cl)cc1Cl)OCc1ccc(COC(=O)COc2ccc(Cl)cc2Cl)cc1 [Compound B1] ? Thanks!
stdout: 21%

----------
Reported pest or weed control at 280 g/ha values for a set of compounds
# Test system: Chenopodium album (CHEAL), common lambsquarters
# Protocol Description: Postemergence herbicide evaluation, growth of Chenopodium album (CHEAL)
# Type: in vivo
# Cond: Chenopodium album, post-emergence, 504 h, 280 g ae/ha, 21 DAA, percent reduction in plant size vs untreated control; read-out: Ave. CHEAL
Number only, in %; omit the unit.

Completed entries (count: 5):
[[record]]
compound = "O=C(COc1ccc(Cl)cc1Cl)Oc1ccccn1 [Compound E11]"
observable = "pest or weed control at 280 g/ha"
numeric_value = 92.5

[[record]]
compound = "O=C(COc1ccc(Cl)cc1Cl)NOCc1ccc(Cl)cc1 [Compound D16]"
observable = "pest or weed control at 280 g/ha"
numeric_value = 97.5

[[record]]
compound = "Cc1cc(NC(=O)COc2ccc(Cl)cc2Cl)n(C)n1 [Compound D14]"
observable = "pest or weed control at 280 g/ha"
numeric_value = 95

[[record]]
compound = "O=C(COc1ccc(Cl)cc1Cl)Nc1cccnc1 [Compound D27]"
observable = "pest or weed control at 280 g/ha"
numeric_value = 94

[[record]]
compound = "COc1ncc(OC(=O)COc2ccc(Cl)cc2Cl)cn1 [Compound E12]"
observable = "pest or weed control at 280 g/ha"
numeric_value = 87.5


stdin: Return the recorded pest or weed control at 280 g/ha value; entry: O=C(COc1ccc(Cl)cc1Cl)Nc1ccnc(Cl)c1 [Compound D13]
stdout: 90

stdin: Fill in reported pest or weed control at 280 g/ha for this entry: C/C(=N\OC(=O)COc1ccc(Cl)cc1Cl)C(=O)c1ccccc1 [Compound A22]
stdout: 87.5

stdin: Read the entry COc1ccc(CONC(=O)COc2ccc(Cl)cc2Cl)cc1 [Compound D20] and write its reported pest or weed control at 280 g/ha.
stdout: 99

stdin: Determine from records and report pest or weed control at 280 g/ha for O=C(COc1cc(Cl)cc(Cl)c1)OCCCOC(=O)COc1ccc(Cl)cc1Cl [Compound B7]
stdout: 90

stdin: Annotate the compound CCN(CC)OC(=O)COc1ccc(Cl)cc1Cl [Compound A21] with its measured pest or weed control at 280 g/ha.
stdout: 97.5
